system: HeLa Kyoto; assay: thermal stability score vs G1/S (z-score of summed log2 fold changes over temperatures); higher = more thermally stable than in G1/S; details: cell cycle stage: mitosis;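 further: synchronized HeLa Kyoto cells, proteins quantified by TMT10plex mass spectrometry, three biological replicates, mitosis taken 0.5 h after nocodazole release, G1/S directly after double thymidine block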
propertyLabel: thermal stability score
Provide a numeric answer; units are not to be included.

# residueSequence, testResult
data = [
    ("MKSNPAIQAAIDLTAGAAGGTACVLTGQPFDTMKVKMQTFPDLYRGLTDCCLKTYSQVGFRGFYKGTSPALIANIAENSVLFMCYGFCQQVVRKVAGLDKQAKLSDLQNAAAGSFASAFAALVLCPTELVKCRLQTMYEMETSGKIAKSQNTVWSVIKSILRKDGPLGFYHGLSSTLLREVPGYFFFFGGYELSRSFFASGRSKDELGPVPLMLSGGVGGICLWLAVYPVDCIKSRIQVLSMSGKQAGFIRTFINVVKNEGITALYSGLKPTMIRAFPANGALFLAYEYSRKLMMNQLEAY [SLC25A15]", -1.66),
]

Moving on to another sequence below.
query: GET /values?readout=thermal stability score&item= MLDSLLALGGLVLLRDSVEWEGRSLLKALVKKSALCGEQVHILGCEVSEEEFREGFDSDINNRLVYHDFFRDPLNWSKTEEAFPGGPLGALRAMCKRTDPVPVTIALDSLSWLLLRLPCTTLCQVLHAVSHQDSCPGDSSSVGKVSVLGLLHEELHGPGPVGALSSLAQTEVTLGGTMGQASAHILCRRPRQRPTDQTQWFSILPDFSLDLQEGPSVESQPYSDPHIPPVDPTTHLTFNLHLSKKEREARDSLILPFQFSSEKQQALLRPRPGQATSHIFYEPDAYDDLDQEDPDDDLDI [ELP5]
result: -4.18
